The origin of these recorded values is patent US4880804A.

IC50: recorded values
Experimental target: AII receptor
Assay procedure: Angiotensin II receptor binding, displacement of 3H-AII
Condition parameters: read-out: Angiotensin II Receptor Binding IC50; rat adrenal cortical microsomes, 2 nM 3H-AII, 1 hour, room temperature

| Query smiles | Experimental target | IC50 |
| --- | --- | --- |
| CCC=Cc1nc2ccc(CO)cc2n1Cc1ccc(-c2ccccc2C(=O)O)cc1 | AII receptor | 0.5 µM |
| CCOC(=O)C=Cc1nc2ccccc2n1Cc1ccc(NC(=O)c2ccccc2C(=O)O)cc1 | AII receptor | 15 µM |
| CCCCc1nc2ccc(C(=O)O)cc2n1Cc1ccc(-c2ccccc2C(=O)O)cc1 | AII receptor | 5.7 µM |
| CCCCc1nc2cc(CO)ccc2n1Cc1ccc(-c2ccccc2C(=O)O)cc1 | AII receptor | 0.37 µM |
| CCOC(=O)CCc1nc2ccccc2n1Cc1ccc(NC(=O)c2ccccc2NS(=O)(=O)C(F)(F)F)cc1 | AII receptor | 2.8 µM |
| CCCCc1nc2ccc(CO)cc2n1Cc1ccc(-c2ccccc2C(=O)O)cc1 | AII receptor | 0.22 µM |
| CCOC(=O)C(Cc1nc2ccccc2n1Cc1ccc(NC(=O)c2ccccc2C(=O)O)cc1)C(=O)OCC | AII receptor | 8.3 µM |
| COCc1nc2ccc(CO)cc2n1Cc1ccc(-c2ccccc2C(=O)O)cc1 | AII receptor | 6.3 µM |
| CCCCc1nc2cc(OC)ccc2n1Cc1ccc(-c2ccccc2C(=O)O)cc1 | AII receptor | 1 µM |
| CCCCc1nc2cc(Cl)ccc2n1Cc1ccc(-c2ccccc2C(=O)O)cc1 | AII receptor | 11 µM |
| COCc1nc2cc(CO)ccc2n1Cc1ccc(-c2ccccc2C(=O)O)cc1 | AII receptor | 21 µM |
| CCOC(=O)CCc1nc2ccccc2n1Cc1ccc(NC(=O)c2ccccc2C(=O)O)cc1 | AII receptor | 2.1 µM |
| CCCCc1nc2ccc(C=O)cc2n1Cc1ccc(-c2ccccc2C(=O)O)cc1 | AII receptor | 1.4 µM |
| CCCCc1nc2ccc(OC)cc2n1Cc1ccc(-c2ccccc2C(=O)O)cc1 | AII receptor | 0.92 µM |
| CCCCc1nc2ccc(Cl)cc2n1Cc1ccc(-c2ccccc2C(=O)O)cc1 | AII receptor | 5 µM |
| CCCC=Cc1nc2ccccc2n1Cc1ccc(NC(=O)c2ccccc2C(=O)O)cc1 | AII receptor | 4.4 µM |
| CCCCc1nc2cc(C(=O)O)ccc2n1Cc1ccc(-c2ccccc2C(=O)O)cc1 | AII receptor | 2.5 µM |
| CCOC(=O)C=Cc1nc2ccccc2n1Cc1ccc(NC(=O)c2ccccc2NS(=O)(=O)C(F)(F)F)cc1 | AII receptor | 29 µM |
